# protocolNotes: Distribution coefficient (log DC)
# Format: physicochemical
# assaySetup: read-out: log DC (Dist. Coeff.)
measuredProperty: logD

> print(dat)
                                   molecule  measuredproperty  valuereported
1  CN1C[C@@H](c2cccc(O)c2)OC1C(C)(C)C (single isomer, unassigned) [phenylephrine oxazolidine]              logD           1.38
